# assay.explanation: Ratio of drug level in brain to plasma in CD1 mouse at 400 mg/kg, ip after 4 hrs by LC-MS/MS analysis
# Assay type: ADME, organism-based
# condition.label: brain and plasma, read-out: BPR
measured.parameter: Kp at 4 h

entry_smiles=CC(C)CCNC1=CC(=O)c2ccccc2C1=O measured_parameter="Kp at 4 h" val=1

====

# assay.explanation: Toxicity in mouse HT22 cells assessed as inhibition of cell viability at 10 uM incubated for 48 hrs by Cell-titer-Blue dye based fluorescence spectrophotometry relative to control
# Set-up: species or system HT-22
# condition.label: read-out: Activity
If the reported inhibition at 48 h, 10 µM equals or exceeds 20%, assign Satisfied. If not, assign Not satisfied.

molecule=O=C1C=C(NCCC2CCCC2)C(=O)c2ccccc21 assigned_class=Satisfied
molecule=CC(C)(C)CNC1=CC(=O)c2ccccc2C1=O assigned_class="Not satisfied"
molecule=O=C1C=C(NCCC2CCCCC2)C(=O)c2ccccc21 assigned_class="Not satisfied"
molecule=CC1=C(NCCC(C)(C)C)C(=O)c2ccccc2C1=O assigned_class="Not satisfied"
molecule="CCC(O)CNC1=CC(=O)c2ccccc2C1=O (stereo not drawn)" assigned_class=Satisfied
molecule="CCC(C)CNC1=CC(=O)c2ccccc2C1=O (stereo not drawn)" assigned_class="Not satisfied"
molecule="CC(C)CC(C)NC1=CC(=O)c2ccccc2C1=O (stereo not drawn)" assigned_class="Not satisfied"
molecule=CN(CCCNC1=CC(=O)c2ccccc2C1=O)c1ccccc1 assigned_class="Not satisfied"
molecule=CC(C)(C)CCNC1=CC(=O)c2ccccc2C1=O assigned_class="Not satisfied"
molecule=CN(C)CCNC1=CC(=O)c2ccccc2C1=O assigned_class=Satisfied
molecule=O=C1C=C(NCCC2CC2)C(=O)c2ccccc21 assigned_class=Satisfied
molecule=CC(C)=CCNC1=CC(=O)c2ccccc2C1=O assigned_class="Not satisfied"
molecule=O=C1C=C(NCCC2CCC2)C(=O)c2ccccc21 assigned_class=Satisfied

====

# assay.explanation: Half life in CD1 mouse at 20 mg/kg, ip measured after 0.083 to 24 hrs by LC-MS/MS analysis
# Type: ADME, organism-based
# condition.label: in vivo
measured.parameter: half-life (h)

entry_smiles=C#CCNC1=CC(=O)c2ccccc2C1=O measured_parameter=half-life u=h val=1.1

====

# target.desc: Voltage-gated inwardly rectifying potassium channel KCNH2 (Homo sapiens)
# Sequence (Q12809 whole entry): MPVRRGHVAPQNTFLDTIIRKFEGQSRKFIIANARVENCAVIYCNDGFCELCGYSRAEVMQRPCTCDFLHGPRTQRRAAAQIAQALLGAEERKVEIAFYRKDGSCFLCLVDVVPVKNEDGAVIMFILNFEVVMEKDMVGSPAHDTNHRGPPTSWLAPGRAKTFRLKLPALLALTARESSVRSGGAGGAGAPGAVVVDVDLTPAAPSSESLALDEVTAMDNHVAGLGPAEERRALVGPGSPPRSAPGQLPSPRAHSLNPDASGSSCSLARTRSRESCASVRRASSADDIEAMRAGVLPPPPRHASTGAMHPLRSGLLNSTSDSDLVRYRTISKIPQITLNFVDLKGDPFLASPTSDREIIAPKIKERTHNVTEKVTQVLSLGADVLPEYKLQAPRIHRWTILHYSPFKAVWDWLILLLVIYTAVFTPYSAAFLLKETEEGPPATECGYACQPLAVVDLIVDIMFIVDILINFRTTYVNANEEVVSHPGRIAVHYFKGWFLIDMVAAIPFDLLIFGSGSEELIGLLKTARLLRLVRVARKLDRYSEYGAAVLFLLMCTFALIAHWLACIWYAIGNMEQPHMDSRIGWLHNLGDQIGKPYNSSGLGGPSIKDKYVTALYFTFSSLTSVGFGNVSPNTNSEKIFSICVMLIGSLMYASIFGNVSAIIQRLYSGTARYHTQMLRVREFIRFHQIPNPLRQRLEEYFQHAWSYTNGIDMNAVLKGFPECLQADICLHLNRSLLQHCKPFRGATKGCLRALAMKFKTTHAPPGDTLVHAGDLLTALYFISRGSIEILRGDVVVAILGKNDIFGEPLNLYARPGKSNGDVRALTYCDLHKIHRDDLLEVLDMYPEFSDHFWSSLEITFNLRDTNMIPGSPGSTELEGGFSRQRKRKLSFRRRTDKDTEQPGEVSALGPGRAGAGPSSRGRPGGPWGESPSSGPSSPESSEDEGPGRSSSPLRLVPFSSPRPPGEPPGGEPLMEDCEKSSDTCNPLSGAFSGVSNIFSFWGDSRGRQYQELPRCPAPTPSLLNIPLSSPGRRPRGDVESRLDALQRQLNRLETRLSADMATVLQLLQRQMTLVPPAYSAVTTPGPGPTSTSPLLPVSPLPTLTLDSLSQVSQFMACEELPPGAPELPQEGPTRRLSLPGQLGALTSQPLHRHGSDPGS
measured.parameter: IC50

entry_smiles=CC(C)CCNC1=CC(=O)c2ccccc2C1=O val="> 30 µM"

====

# assay.explanation: Toxicity in CF1 mouse assessed as induction of motor impairment during acute (1 hr) observation period by rotarod assay
# condition.label: CF1, mouse, in vivo
measured.parameter: TD50 at 1 h (mg/kg)

compound=CC[C@@H](C(N)=O)N1CCCC1=O modifier=> val=500
compound="NC(=O)OCC(COC(N)=O)c1ccccc1 [FELBAMATE]" modifier== val=452

====

# target.desc: Cytochrome P450 2C9 (Homo sapiens, UniProt P11712)
# Sequence (P11712 whole entry, canonical isoform): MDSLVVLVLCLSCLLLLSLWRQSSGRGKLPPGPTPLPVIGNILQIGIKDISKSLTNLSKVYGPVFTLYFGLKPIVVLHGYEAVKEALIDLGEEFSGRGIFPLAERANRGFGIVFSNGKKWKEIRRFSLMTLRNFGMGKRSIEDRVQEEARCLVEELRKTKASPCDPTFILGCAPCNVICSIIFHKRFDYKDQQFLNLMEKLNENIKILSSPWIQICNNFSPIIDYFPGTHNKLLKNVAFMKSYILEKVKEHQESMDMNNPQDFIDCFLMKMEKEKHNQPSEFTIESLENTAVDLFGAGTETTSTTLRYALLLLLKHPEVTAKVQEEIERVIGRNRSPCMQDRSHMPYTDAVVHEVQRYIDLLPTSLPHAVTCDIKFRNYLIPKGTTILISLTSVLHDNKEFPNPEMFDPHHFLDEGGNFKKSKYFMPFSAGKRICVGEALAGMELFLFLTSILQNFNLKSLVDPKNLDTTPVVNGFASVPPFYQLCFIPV
# assay.explanation: Inhibition of CYP2C9 in human liver microsomes using isoform-specific probe substrates incubated for 15 to 30 mins by LC-MS/MS analysis
measured.parameter: IC50 (µM)

entry_smiles=CC(C)CCNC1=CC(=O)c2ccccc2C1=O target_desc="Cytochrome P450 2C9 (Homo sapiens, UniProt P11712)" measured_parameter=IC50 val=29.3

====

# assay.explanation: Ratio of drug level in brain to plasma in CD1 mouse at 400 mg/kg, ip after 1 hr by LC-MS/MS analysis
# Assay type: ADME, organism-based
# condition.label: brain and plasma, read-out: BPR
measured.parameter: Kp at 1 h

entry_smiles=CC(C)CCNC1=CC(=O)c2ccccc2C1=O val=2.33

====

# assay.explanation: Cmax in CD1 mouse at 5 mg/kg, iv measured after 0.083 to 24 hrs by LC-MS/MS analysis
# Assay type: ADME, organism-based
# Design: dose 5 mg/kg, route intravenous
# condition.label: in vivo
measured.parameter: Cmax

entry_smiles=CC(C)CCNC1=CC(=O)c2ccccc2C1=O measured_parameter=Cmax val="1910 ng/mL"

====

# assay.explanation: Cmax in CD1 mouse at 20 mg/kg, po measured after 0.083 to 24 hrs by LC-MS/MS analysis
# Format: ADME, organism-based
# Design: dose 20 mg/kg, route oral
# condition.label: in vivo
measured.parameter: Cmax (ng/mL)

entry_smiles=CC(C)CCNC1=CC(=O)c2ccccc2C1=O val=1020

====

# assay.explanation: Drug level in CD1 mouse brain at 400 mg/kg, ip after 8 hrs by LC-MS/MS analysis
# Format: ADME, organism-based
# condition.label: read-out: Drug uptake
measured.parameter: concentration at 8 h (ng/g)

entry_smiles=CC(C)CCNC1=CC(=O)c2ccccc2C1=O val=2630

====

Entries and their measured Activity follow.
# Species: Danio rerio
# assay.explanation: Anti-seizure activity in Zebrafish larvae assessed as reduction in PTZ-induced increase in total swimming distance in 15 mins at 10 uM pre-incubated for 1 hr prior to PTZ-induced seizure induction relative to control
# Assay type: functional
# Set-up: scale not given: the % may be the effect or the level left
measured.parameter: Activity (%)

compound="CC(CO)CCNC1=CC(=O)c2ccccc2C1=O (stereo unspecified)" measured_parameter=Activity val=8.2
compound=CC(C)(O)CCNC1=CC(=O)c2ccccc2C1=O measured_parameter=Activity val=-5.6
compound=C#CCNC1=CC(=O)c2ccccc2C1=O measured_parameter=Activity val=5.4
compound=O=C1C=C(NCC2CC2)C(=O)c2ccccc21 measured_parameter=Activity val=-10.1
compound=CN(C)CCCNC1=CC(=O)c2ccccc2C1=O measured_parameter=Activity val=-2.9
compound=CCN(CC)CCNC1=CC(=O)c2ccccc2C1=O measured_parameter=Activity val=27

====

# target.desc: UniProt P10632
# Sequence (P10632 whole entry, canonical isoform): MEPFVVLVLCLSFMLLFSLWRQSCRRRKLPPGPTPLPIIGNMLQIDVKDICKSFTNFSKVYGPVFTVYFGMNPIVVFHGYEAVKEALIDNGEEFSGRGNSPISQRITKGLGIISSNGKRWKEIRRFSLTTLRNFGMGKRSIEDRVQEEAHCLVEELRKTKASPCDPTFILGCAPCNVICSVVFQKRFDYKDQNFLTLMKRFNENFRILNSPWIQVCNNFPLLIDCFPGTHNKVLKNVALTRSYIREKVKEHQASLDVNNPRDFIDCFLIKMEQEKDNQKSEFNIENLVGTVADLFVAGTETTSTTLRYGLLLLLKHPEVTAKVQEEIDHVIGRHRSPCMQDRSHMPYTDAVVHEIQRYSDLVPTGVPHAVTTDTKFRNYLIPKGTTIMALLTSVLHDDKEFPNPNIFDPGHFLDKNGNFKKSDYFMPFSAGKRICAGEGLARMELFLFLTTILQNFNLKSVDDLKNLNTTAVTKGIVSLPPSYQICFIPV
# assay.explanation: Inhibition of CYP2C8 in human liver microsomes using isoform-specific probe substrates incubated for 15 to 30 mins by LC-MS/MS analysis
measured.parameter: IC50 (µM)

entry_smiles=CC(C)CCNC1=CC(=O)c2ccccc2C1=O val=54.1

====

# assay.explanation: Drug level in CD1 mouse plasma at 400 mg/kg, ip after 4 hrs by LC-MS/MS analysis
# Assay type: ADME, organism-based
measured.parameter: concentration at 4 h (ng/mL)

entry_smiles=CC(C)CCNC1=CC(=O)c2ccccc2C1=O measured_parameter="concentration at 4 h" val=3740

====

# assay.explanation: AUClast in CD1 mouse at 5 mg/kg, iv measured after 0.083 to 24 hrs by LC-MS/MS analysis
# Assay type: ADME, organism-based
# Parameters: dose 5 mg/kg, time upper 24 hr, time lower 0.083 hr, route intravenous
# condition.label: in vivo
measured.parameter: AUC(0-t) (ng·h/mL)

entry_smiles=CC(C)CCNC1=CC(=O)c2ccccc2C1=O u=ng·h/mL val=636

====

Entries and their measured Tmax follow.
# assay.explanation: Tmax in CD1 mouse at 20 mg/kg, ip measured after 0.083 to 24 hrs by LC-MS/MS analysis
# Type: ADME, organism-based
# condition.label: in vivo
measured.parameter: Tmax

entry_smiles=C#CCNC1=CC(=O)c2ccccc2C1=O val="15 min"
entry_smiles=CC(C)CCNC1=CC(=O)c2ccccc2C1=O val="60 min"

====

# assay.explanation: Drug level in CD1 mouse plasma at 400 mg/kg, ip after 1 hr by LC-MS/MS analysis
# Format: ADME, organism-based
measured.parameter: concentration at 1 h (ng/mL)

entry_smiles=CC(C)CCNC1=CC(=O)c2ccccc2C1=O val=1690

====

# target.desc: Cytochrome P450 2B6 (Homo sapiens, UniProt P20813)
# Sequence (P20813 whole entry, canonical isoform): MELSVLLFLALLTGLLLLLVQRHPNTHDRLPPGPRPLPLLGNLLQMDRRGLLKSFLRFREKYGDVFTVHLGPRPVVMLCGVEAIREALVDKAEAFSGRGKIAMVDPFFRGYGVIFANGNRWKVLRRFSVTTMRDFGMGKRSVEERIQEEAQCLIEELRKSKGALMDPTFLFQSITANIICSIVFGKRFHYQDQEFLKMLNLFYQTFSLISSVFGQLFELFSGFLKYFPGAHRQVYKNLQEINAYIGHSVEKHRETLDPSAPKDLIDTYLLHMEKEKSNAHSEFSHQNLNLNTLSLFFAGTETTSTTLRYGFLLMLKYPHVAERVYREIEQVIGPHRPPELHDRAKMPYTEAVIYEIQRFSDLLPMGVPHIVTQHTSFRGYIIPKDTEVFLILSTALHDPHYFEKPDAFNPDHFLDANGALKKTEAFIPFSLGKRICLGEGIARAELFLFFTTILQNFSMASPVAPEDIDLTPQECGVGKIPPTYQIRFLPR
# assay.explanation: Inhibition of CYP2B6 in human liver microsomes using isoform-specific probe substrates incubated for 15 to 30 mins by LC-MS/MS analysis
measured.parameter: IC50 (µM)

entry_smiles=CC(C)CCNC1=CC(=O)c2ccccc2C1=O measured_parameter=IC50 val=39.3

====

# assay.explanation: Toxicity in mouse HT22 cells assessed as inhibition of cell viability at 10 uM incubated for 48 hrs by Cell-titer-Blue dye based fluorescence spectrophotometry relative to control
# Design: species or system HT-22
# condition.label: read-out: Activity
If the reported inhibition at 48 h, 10 µM equals or exceeds 30%, assign 1 (yes). If not, assign 0 (no).

compound=CC(C)(C)CCCNC1=CC(=O)c2ccccc2C1=O assigned_class="0 (no)"
compound=CCN(CC)CCNC1=CC(=O)c2ccccc2C1=O assigned_class="1 (yes)"
compound=O=C1C=C(NCC2CCC2)C(=O)c2ccccc21 assigned_class="1 (yes)"
compound=CC1=C(NCCC(C)C)C(=O)c2ccccc2C1=O assigned_class="0 (no)"
compound=O=C1C=C(NCC2CC2)C(=O)c2ccccc21 assigned_class="0 (no)"
compound="CC(CO)CCNC1=CC(=O)c2ccccc2C1=O (configuration not stated)" assigned_class="0 (no)"
compound=CC(C)CCNC1=CC(=O)c2ccccc2C1=O assigned_class="0 (no)"
compound="CC(O)CCNC1=CC(=O)c2ccccc2C1=O (configuration not stated)" assigned_class="0 (no)"
compound=CN(C)CCCNC1=CC(=O)c2ccccc2C1=O assigned_class="1 (yes)"
compound=CC(C)(O)CCNC1=CC(=O)c2ccccc2C1=O assigned_class="0 (no)"
compound=CCN(C)CCNC1=CC(=O)c2ccccc2C1=O assigned_class="1 (yes)"
compound=CC(C)CCCNC1=CC(=O)c2ccccc2C1=O assigned_class="0 (no)"
